Data provenance is patent US11739074B2.

- SYSTEM TESTED: NRAS G12C (Homo sapiens, UniProt P01111+P62937, G12C)
- Construct: His6
- Sequence (P01111 whole entry G12C): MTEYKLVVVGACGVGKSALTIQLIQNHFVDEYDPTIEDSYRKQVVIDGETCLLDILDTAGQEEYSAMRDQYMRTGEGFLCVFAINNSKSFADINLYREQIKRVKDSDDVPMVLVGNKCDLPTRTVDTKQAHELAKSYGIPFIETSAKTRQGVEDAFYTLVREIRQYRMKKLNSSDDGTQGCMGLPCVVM
- Sequence (P62937 whole entry): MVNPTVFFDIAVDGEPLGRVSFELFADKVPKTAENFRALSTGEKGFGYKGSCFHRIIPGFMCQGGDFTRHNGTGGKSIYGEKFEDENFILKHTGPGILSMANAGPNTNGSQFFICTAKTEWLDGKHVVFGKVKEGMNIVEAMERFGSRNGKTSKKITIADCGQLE
- ASSAY NAME: Ras-Raf disruption/FRET/MOA assay, NRAS G12C
- Assay type: biochemical
- PARTICULARS: NRAS G12C; read-out: NRAS G12C FRET data IC50
MEASURED PARAMETER: IC50

>  <COMPOUND>
CCn1c(-c2cccnc2[C@H](C)OC)c2c3cc(ccc31)-c1cc(O)cc(c1)C[C@H](NC(=O)[C@H](C(C)C)N1CO[C@]3(CCN(C(=O)[C@H]4CN4)C3)C1=O)C(=O)N1CCC[C@H](N1)C(=O)OCC(C)(C)C2 [Compound 231]

>  <IC50>
< 10 nM

$$$$

Name the reported IC50 value associated with the compound CCn1c(-c2cccnc2[C@H](C)OC)c2c3cc(ccc31)-c1cc(O)cc(c1)C[C@H](NC(=O)[C@H](C(C)C)N1CC[C@]3(CCN(C[C@@H]4CN4)C3)C1=O)C(=O)N1CCC[C@H](N1)C(=O)OCC(C)(C)C2 [Compound 176]
10 to 100 nM
